Where these numbers come from: the supplement of paper PMC6555819

# Tested on: PPARg DBDmut IVT, anti-PPARg (DBD mutation: PPARg1 K132A/R137A, NR concentration 270 nM)
# assay remarks: PBM binding z-score (relative to random genomic background probes); higher = stronger binding; sequences stand for … in GC…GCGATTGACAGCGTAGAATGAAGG
Entry class follows PBM binding z-score: bucket 1: < -0.06; bucket 2: ≥ -0.06 and < 1; bucket 3: ≥ 1

Problem: Lab note: which band did "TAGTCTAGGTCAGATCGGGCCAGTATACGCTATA" land in?
Result: bucket 3

Problem: Could you do the same for "CGTCAAAGTTCAACTATGGTAACGTAAAGCACGC" , please?
Result: bucket 3

Problem: Could you do the same for "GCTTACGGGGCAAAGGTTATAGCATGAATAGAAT" , please?
Result: bucket 3

Problem: Could you do the same for "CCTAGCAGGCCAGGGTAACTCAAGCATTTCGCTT" , please?
Result: bucket 1

Problem: Could you do the same for "CCTTACGGGTCACGAGGCTATAGCACGACGAGCG" , please?
Result: bucket 1

Problem: Could you do the same for "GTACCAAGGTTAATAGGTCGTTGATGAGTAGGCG" , please?
Result: bucket 1

Problem: Could you do the same for "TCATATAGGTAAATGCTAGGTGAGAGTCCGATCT" , please?
Result: bucket 2

Problem: Could you do the same for "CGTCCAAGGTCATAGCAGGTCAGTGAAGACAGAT" , please?
Result: bucket 3

Problem: Could you do the same for "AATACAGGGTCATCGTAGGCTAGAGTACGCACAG" , please?
Result: bucket 2

Problem: Could you do the same for "ACAATGAGGTTATTAAGATCAGGGAATTGCGGTC" , please?
Result: bucket 3

Problem: Could you do the same for "AGAATGAGGTTATTAAGATCGGGGAATTGCGGTC" , please?
Result: bucket 2

Problem: Could you do the same for "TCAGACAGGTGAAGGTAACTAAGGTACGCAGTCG" , please?
Result: bucket 2

---

# System: PPARg DBDmut IVT, anti-PPARg (DBD mutation: PPARg1 K132A/R137A, NR concentration 270 nM)
# assay remarks: PBM binding z-score (relative to random genomic background probes); higher = stronger binding; sequences stand for … in GC…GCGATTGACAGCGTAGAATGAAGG
measured property: PBM binding z-score
The answer should be a number; do not append a unit.

Problem: For the sequence "CCTGACAGGTGAGAAGGTAACTCAGCCTCGATTA" , what PBM binding z-score is on record?
Result: -0.671

Problem: Could you do the same for "TATACAGGGTCAAAGGCCACAGTACGAATGTCGA" , please?
Result: 1.95

Problem: Could you do the same for "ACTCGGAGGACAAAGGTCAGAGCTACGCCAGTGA" , please?
Result: 0.127

Problem: Could you do the same for "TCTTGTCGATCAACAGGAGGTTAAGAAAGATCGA" , please?
Result: -0.175

Problem: Could you do the same for "CCGACTGGGGCAGAAAGGTTACCAGACCATCCGG" , please?
Result: -1.01

Problem: Could you do the same for "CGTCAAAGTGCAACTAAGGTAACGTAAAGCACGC" , please?
Result: -0.228

Problem: Could you do the same for "AGAATGAGATTATACGTAGATCAGGGAAGAAAGT" , please?
Result: 0.37

Problem: Could you do the same for "AATTCAGGGTCATCGTAGGCCAGAGTACGCACAG" , please?
Result: 3.09

Problem: Could you do the same for "CAAACTAGGTCAACGGAAGGTCAAAGTCCGCATG" , please?
Result: 2.05

Problem: Could you do the same for "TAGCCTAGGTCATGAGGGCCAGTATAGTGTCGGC" , please?
Result: -0.29

Problem: Could you do the same for "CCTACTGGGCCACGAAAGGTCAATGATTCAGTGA" , please?
Result: -0.781

Problem: Could you do the same for "CGTCCAAGGTCAAAGGGCAGTGAAGAGATGACGG" , please?
Result: 0.196

Problem: Could you do the same for "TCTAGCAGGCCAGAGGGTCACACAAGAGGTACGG" , please?
Result: -0.172

Problem: Could you do the same for "AGACCGAGGGCAATGAGTTGATAGCACGGGTGGC" , please?
Result: -1.67

Problem: Could you do the same for "CCGACTGGGGCAAGGTTATCATAACGCACAGCCA" , please?
Result: -0.512

Problem: Could you do the same for "CCGACTGGGGCATAAGGTAACCATAAGCCAGCCC" , please?
Result: -0.986

Problem: Could you do the same for "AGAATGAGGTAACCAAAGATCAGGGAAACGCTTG" , please?
Result: 1.42

Problem: Could you do the same for "CCAACTAGGTCAAGGTCAAAGTCGGTTTGTGCCA" , please?
Result: 1.36

Problem: Could you do the same for "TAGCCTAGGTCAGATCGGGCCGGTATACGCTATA" , please?
Result: -0.214

Problem: Could you do the same for "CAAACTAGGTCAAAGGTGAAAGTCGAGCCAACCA" , please?
Result: 3.41

Problem: Could you do the same for "AGTCAAAGTTCAGGACGAGGTAACGTCAAGCACG" , please?
Result: -0.603

Problem: Could you do the same for "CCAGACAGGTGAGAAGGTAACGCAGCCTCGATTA" , please?
Result: -0.199

Problem: Could you do the same for "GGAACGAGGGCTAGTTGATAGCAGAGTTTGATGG" , please?
Result: -0.827

Problem: Could you do the same for "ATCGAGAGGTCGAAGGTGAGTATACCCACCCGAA" , please?
Result: 0.104

Problem: Could you do the same for "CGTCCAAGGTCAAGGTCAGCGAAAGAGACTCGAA" , please?
Result: -0.753

Problem: Could you do the same for "TAGCCTAGGTCATGGGCCAGTAAACCACGCGAAC" , please?
Result: 0.0351

Problem: Could you do the same for "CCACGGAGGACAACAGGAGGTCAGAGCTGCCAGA" , please?
Result: -0.952

Problem: Could you do the same for "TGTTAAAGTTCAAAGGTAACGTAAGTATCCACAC" , please?
Result: 2.02

Problem: Could you do the same for "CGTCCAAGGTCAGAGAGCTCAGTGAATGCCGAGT" , please?
Result: -0.346

Problem: Could you do the same for "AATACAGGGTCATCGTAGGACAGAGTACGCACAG" , please?
Result: 1.38

Problem: Could you do the same for "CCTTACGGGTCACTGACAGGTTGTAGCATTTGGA" , please?
Result: -0.219

Problem: Could you do the same for "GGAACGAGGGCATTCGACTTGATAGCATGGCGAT" , please?
Result: 0.0396

Problem: Could you do the same for "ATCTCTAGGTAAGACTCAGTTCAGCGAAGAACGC" , please?
Result: 0.673

Problem: Could you do the same for "TAGACTAGGTCAGATCGGGCCAGTATACGCTATA" , please?
Result: 0.155

Problem: Could you do the same for "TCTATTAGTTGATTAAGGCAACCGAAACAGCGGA" , please?
Result: 0.689

Problem: Could you do the same for "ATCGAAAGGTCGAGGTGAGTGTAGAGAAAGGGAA" , please?
Result: -0.292

Problem: Could you do the same for "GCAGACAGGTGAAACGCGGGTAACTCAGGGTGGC" , please?
Result: -1.01

Problem: Could you do the same for "CCTACTGGGCCACGAAAGGTCATTGAATCAGTGA" , please?
Result: -0.421

Problem: Could you do the same for "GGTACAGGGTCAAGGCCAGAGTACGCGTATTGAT" , please?
Result: 0.441

Problem: Could you do the same for "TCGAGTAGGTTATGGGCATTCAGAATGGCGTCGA" , please?
Result: -0.999

Problem: Could you do the same for "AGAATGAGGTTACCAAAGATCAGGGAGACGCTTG" , please?
Result: 0.476

Problem: Could you do the same for "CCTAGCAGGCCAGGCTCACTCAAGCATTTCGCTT" , please?
Result: -2.12

Problem: Could you do the same for "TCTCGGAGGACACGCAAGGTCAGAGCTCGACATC" , please?
Result: -0.649

Problem: Could you do the same for "GTACCAAGGTGAATAGGTCTTTGATGAGTAGGCG" , please?
Result: 0.145

Problem: Could you do the same for "TCTTGTAGATCAGCAGGTTTAGAAAGCTGGCCAA" , please?
Result: -0.0639

Problem: Could you do the same for "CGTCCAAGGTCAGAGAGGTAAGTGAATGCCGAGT" , please?
Result: -0.788

Problem: Could you do the same for "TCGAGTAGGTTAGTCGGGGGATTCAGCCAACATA" , please?
Result: 5.11

Problem: Could you do the same for "TCTCGGAGGACACGAAAGGTCAGAGTTCGACATC" , please?
Result: -0.696

Problem: Could you do the same for "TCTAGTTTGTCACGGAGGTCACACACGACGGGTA" , please?
Result: 1.64

Problem: Could you do the same for "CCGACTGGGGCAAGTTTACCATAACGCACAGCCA" , please?
Result: -0.469
